- Tested target: UniProt P04150
- Sequence (P04150 whole entry): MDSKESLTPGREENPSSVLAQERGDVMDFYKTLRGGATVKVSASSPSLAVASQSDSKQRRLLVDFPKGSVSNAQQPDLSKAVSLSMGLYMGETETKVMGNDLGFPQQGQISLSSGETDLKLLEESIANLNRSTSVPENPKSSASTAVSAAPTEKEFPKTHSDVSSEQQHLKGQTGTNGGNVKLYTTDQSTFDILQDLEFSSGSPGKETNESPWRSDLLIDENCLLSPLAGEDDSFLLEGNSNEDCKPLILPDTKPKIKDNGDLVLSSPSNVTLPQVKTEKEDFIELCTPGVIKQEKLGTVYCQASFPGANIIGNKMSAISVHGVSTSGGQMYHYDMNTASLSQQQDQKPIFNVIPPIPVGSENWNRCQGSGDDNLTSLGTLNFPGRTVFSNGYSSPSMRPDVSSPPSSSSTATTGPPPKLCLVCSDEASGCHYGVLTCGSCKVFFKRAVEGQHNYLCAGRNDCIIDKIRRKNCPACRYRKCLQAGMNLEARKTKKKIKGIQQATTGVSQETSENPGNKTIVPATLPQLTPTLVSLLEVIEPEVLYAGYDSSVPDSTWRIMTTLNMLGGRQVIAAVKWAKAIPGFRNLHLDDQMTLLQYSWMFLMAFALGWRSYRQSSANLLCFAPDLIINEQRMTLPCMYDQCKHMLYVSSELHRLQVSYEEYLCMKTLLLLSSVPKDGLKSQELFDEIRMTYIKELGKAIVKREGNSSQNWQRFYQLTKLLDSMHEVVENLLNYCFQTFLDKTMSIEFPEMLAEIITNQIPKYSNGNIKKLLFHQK
- Test details: Transrepression Assay (GITAR), TNFα-β-lactamase reporter in U937 cells
- Type: cell-based
- Parameters: U937 cells contain an endogenous glucocorticoid receptor (GR); endogenous in cells; host or cells: U937 cells stably transfected with the TNF-alpha promoter/beta-lactamase reporter
- Condition description: U-937, U937 cells; maximum activity; read-out: Transrepression U937 Cells GITAR Emax
Consider the cut-off 60%. If the recorded Emax is strictly smaller, the label is yes; if not, the label is no.

Consider the following illustrative entries.
| Smiles string | Answer label |
| --- | --- |
| C[C@]12Cc3cnn(-c4ccc(F)cc4)c3C=C1CC[C@@H]2CN(CCO)S(=O)(=O)c1ccccc1C(N)=O | no |
| Cc1noc(C)c1S(=O)(=O)N(CCCc1ccccc1)C[C@H]1CCC2=Cc3c(cnn3-c3ccc(F)cc3)C[C@@]21C | yes |
| CN1CCOc2cc(S(=O)(=O)N(CC#N)C[C@H]3CCC4=Cc5c(cnn5-c5ccc(F)cc5)C[C@@]43C)ccc21 | yes |
| C[C@]12Cc3cnn(-c4ccc(F)cc4)c3C=C1CC[C@@H]2CN(CCO)S(=O)(=O)c1cc(C(F)(F)F)ccc1Cl | no |
| C[C@]12Cc3cnn(-c4ccc(F)cc4)c3C=C1CC[C@@H]2CN(CC1CC1)S(=O)(=O)c1ccccc1Cl | no |

In the record for Cn1cc(S(=O)(=O)N(CCc2ccccc2F)C[C@H]2CCC3=Cc4c(cnn4-c4ccc(F)cc4)C[C@@]32C)c(C(F)(F)F)n1 , is Emax less than 60%?
no

Check CN(C[C@H]1CCC2=Cc3c(cnn3-c3ccc(F)cc3)C[C@@]21C)S(=O)(=O)CC(F)(F)F too.
no

Queued: C[C@]12Cc3cnn(-c4ccc(F)cc4)c3C=C1CC[C@@H]2CN(CC#N)S(=O)(=O)c1cccc(Cl)c1Cl
yes

Follow-up entry: C[C@]12Cc3cnn(-c4ccc(F)cc4)c3C=C1CC[C@@H]2CN(CC#N)S(=O)(=O)c1ccc(Oc2ccccn2)cc1
yes

And what about the compound C[C@]12Cc3cnn(-c4ccc(F)cc4)c3C=C1CC[C@@H]2CN(CCc1ccccc1F)S(=O)(=O)Cc1cccnc1 ?
no

Next: CCCS(=O)(=O)N(CCc1ccccc1F)C[C@H]1CCC2=Cc3c(cnn3-c3ccc(F)cc3)C[C@@]21C
no

Value source: patent US8299048B2
